tgt: Human recombinant Acetyl-CoA Carboxylase 2 (ACC2) (Homo sapiens)
experiment-summary: Assay X: ACC2 inhibition, inorganic phosphate (malachite green)
Format: biochemical
applied-conditions: Assay X: 37° C., 1.5 h, 5 min pre-incubation
Entries annotated with measured pIC50
# pIC50: negative log10 of molar concentration; output just the value

Worked cases, answers included:
CC(C)(C)OC(=O)NC[C@H]1CC[C@H](CNC(=O)c2cc(N3CCC(CCN4CC(C(=O)O)C4)CC3)nc3ccccc23)CC1 [Example 235] :: 6.64
CN(CCO)CCC1CCN(c2cc(C(=O)NC[C@H]3CC[C@H](CNC(=O)OC(C)(C)C)CC3)c3ccccc3n2)CC1 [Example 232] :: 6.85

Q. For the molecule shown here, CC(C)(C)OC(=O)NC[C@H]1CC[C@H](CNC(=O)c2cc(-c3ccc(N4CCC(CO)CC4)nc3)nc3ccccc23)CC1 [Example 161] , give the reported pIC50.
A. 6.80

----------
Entries annotated with measured IC50
tgt: Human recombinant Acetyl-CoA Carboxylase 1 (ACC1) (Homo sapiens, UniProt Q13085)
experiment-summary: Assay X: ACC1 inhibition, inorganic phosphate (malachite green)
Type: biochemical
applied-conditions: Assay X: 37° C., 1.5 h, 5 min pre-incubation
Response body: numeric value in µM, unit text excluded.

Q. For the compound shown here, `CC(C)(C)OC(=O)NC[C@H]1CC[C@H](CNC(=O)c2cc(-c3ccc(N)cc3)nc3ccccc23)CC1` , give the reported IC50.
A. 0.21

----------
tgt: Human recombinant Acetyl-CoA Carboxylase 1 (ACC1) (Homo sapiens)
experiment-summary: Assay X: ACC1 inhibition, inorganic phosphate (malachite green)
Type: biochemical
applied-conditions: Assay X: 37° C., 1.5 h, 5 min pre-incubation
measurement-name: IC50 (µM)
Response body: numeric value in µM, unit text excluded.

Worked cases, answers included:
CC(=O)NCC1CCN(c2cc(C(=O)NC[C@H]3CC[C@H](CNC(=O)OC(C)(C)C)CC3)c3ccccc3n2)CC1 [Example 191] :: 2.96
CC(C)(C)OC(=O)NC[C@H]1CC[C@H](CNC(=O)c2cc(-c3ccc(NCCCO)nc3)nc3ccccc23)CC1 [Example 150] :: 0.35

Q. For the compound shown here, CC(C)(C)OC(=O)NC[C@H]1CC[C@H](CNC(=O)c2cc(-c3ccc(OC4CCOCC4)nc3)nc3ccccc23)CC1 [Example 175] , give the reported IC50.
A. 7.3

----------
tgt: Human recombinant Acetyl-CoA Carboxylase 2 (ACC2) (Homo sapiens, UniProt O00763)
Sequence (O00763 whole entry): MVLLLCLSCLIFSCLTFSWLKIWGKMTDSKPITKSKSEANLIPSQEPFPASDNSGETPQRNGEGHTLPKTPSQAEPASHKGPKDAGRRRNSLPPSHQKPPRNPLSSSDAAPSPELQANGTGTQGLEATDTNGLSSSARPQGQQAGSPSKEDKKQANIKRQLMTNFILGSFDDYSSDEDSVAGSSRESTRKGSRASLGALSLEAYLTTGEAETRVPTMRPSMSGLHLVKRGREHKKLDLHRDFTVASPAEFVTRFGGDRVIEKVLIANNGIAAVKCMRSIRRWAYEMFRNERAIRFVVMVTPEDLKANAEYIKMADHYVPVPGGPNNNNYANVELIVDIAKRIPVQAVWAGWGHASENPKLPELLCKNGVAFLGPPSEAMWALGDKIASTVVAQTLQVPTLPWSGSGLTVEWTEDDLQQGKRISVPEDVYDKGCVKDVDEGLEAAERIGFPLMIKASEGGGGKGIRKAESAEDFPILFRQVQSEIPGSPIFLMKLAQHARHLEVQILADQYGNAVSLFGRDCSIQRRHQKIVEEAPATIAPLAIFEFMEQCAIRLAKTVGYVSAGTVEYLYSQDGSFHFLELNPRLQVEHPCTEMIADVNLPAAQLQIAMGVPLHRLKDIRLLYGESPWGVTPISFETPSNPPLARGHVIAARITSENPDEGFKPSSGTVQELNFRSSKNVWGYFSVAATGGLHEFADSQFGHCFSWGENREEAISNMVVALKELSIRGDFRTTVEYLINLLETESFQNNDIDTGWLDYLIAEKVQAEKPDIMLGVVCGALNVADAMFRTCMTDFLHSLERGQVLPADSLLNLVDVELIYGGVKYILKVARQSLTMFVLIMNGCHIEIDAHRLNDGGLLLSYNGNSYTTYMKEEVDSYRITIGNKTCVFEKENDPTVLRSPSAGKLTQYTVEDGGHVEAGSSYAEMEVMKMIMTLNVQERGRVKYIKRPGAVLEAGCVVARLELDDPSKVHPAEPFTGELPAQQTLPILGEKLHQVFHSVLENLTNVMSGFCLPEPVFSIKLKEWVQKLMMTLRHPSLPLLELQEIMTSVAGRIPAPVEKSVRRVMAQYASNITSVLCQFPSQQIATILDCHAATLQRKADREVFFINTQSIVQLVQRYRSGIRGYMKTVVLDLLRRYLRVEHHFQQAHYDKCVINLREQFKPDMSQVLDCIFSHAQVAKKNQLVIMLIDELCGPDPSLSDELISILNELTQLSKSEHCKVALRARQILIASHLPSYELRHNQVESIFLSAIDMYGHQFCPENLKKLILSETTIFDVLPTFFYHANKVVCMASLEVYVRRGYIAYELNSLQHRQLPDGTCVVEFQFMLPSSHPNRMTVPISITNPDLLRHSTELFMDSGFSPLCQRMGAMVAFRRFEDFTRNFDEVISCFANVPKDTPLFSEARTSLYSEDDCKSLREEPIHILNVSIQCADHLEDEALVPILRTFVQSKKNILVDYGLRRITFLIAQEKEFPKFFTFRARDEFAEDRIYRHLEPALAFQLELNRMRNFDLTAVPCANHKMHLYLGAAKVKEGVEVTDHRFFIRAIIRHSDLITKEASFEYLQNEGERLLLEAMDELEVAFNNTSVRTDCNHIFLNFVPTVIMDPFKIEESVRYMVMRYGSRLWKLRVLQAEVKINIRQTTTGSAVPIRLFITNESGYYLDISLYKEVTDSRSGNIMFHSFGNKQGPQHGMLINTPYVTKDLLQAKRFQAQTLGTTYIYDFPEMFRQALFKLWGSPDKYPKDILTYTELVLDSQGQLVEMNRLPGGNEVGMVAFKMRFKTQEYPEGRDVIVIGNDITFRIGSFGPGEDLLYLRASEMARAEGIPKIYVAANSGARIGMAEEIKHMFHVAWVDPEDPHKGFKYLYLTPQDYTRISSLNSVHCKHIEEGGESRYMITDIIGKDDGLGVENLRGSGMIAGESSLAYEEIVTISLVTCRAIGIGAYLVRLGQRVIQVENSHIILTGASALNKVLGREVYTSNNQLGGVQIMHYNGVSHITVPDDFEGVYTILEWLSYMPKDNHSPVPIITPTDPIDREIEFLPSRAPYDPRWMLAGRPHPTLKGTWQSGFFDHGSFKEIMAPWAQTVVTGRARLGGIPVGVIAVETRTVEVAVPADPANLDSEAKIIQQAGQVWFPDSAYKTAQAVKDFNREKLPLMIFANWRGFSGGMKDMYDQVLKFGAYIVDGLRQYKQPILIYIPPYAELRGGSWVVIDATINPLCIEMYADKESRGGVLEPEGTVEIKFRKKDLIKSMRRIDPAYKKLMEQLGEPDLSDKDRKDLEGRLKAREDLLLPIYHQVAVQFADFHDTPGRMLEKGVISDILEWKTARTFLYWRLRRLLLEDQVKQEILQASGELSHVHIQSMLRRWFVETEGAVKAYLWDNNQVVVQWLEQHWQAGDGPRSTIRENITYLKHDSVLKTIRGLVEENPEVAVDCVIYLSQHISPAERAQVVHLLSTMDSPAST
experiment-summary: Assay X: ACC2 inhibition, inorganic phosphate (malachite green)
Type: biochemical
applied-conditions: Assay X: 37° C., 1.5 h, 5 min pre-incubation
Procedure: Human recombinant Acetyl-CoA Carboxylase 1 and Acetyl-CoA Carboxylase 2 (ACC1 and ACC2) were assayed by determining the amount of inorganic phosphate (Pi) generated. […] After 1.5 h the reaction was stopped by addition of 74 μL of water followed by extensive mixing, split and transfer of 2×40 μL to a read-plate encompassing 30 μL distilled H2O per well (n=2→n=4). […]
Entries annotated with measured pIC50
# pIC50: negative log10 of molar concentration; output just the value

CC(C)(C)OC(=O)NC[C@H]1CC[C@H](CNC(=O)c2cc(-c3ccc(N4CCC(C(N)=O)CC4)nc3)nc3ccccc23)CC1 :: 6.89

Q. For the compound shown here, `COCCN(C)CCC1CCN(c2cc(C(=O)NC[C@H]3CC[C@H](CNC(=O)OC(C)(C)C)CC3)c3ccccc3n2)CC1` , give the reported pIC50.
A. 6.64

Q. For the compound shown here, `CN1CCN(c2ccc(-c3cc(C(=O)NC[C@H]4CC[C@H](CNC(=O)OCCn5cccn5)CC4)c4ccccc4n3)cn2)CC1` , give the reported pIC50.
A. 5.61

Q. For the compound shown here, `CC(C)(C)OC(=O)NC[C@H]1CC[C@H](CNC(=O)c2cc(-c3ccc(NCCOCCO)nc3)nc3ccccc23)CC1` , give the reported pIC50.
A. 6.39

Q. For the compound shown here, `CN(C)CCOC1CCN(c2cc(C(=O)NC[C@H]3CC[C@H](CNC(=O)OC(C)(C)C)CC3)c3ccccc3n2)CC1` , give the reported pIC50.
A. 6.57

Q. For the compound shown here, CN1CCN(c2ccc(-c3cc(C(=O)NC[C@H]4CC[C@H](CNC(=O)OCC5CCOC5)CC4)c4ccccc4n3)cn2)CC1 (stereo partly drawn) , give the reported pIC50.
A. 6.38

----------
tgt: Human recombinant Acetyl-CoA Carboxylase 1 (ACC1) (Homo sapiens)
experiment-summary: Assay Y: ACC1 inhibition, inorganic phosphate (Malachite Green)
Format: biochemical
applied-conditions: Assay Y: room temperature, 3 hr, 15 min preincubation
Values of IC50 strictly less than 2 µM map to Condition met, and values of at least 2 µM map to Condition not met.

These solved cases illustrate the format of a correct answer.
Cc1nc(C)c(-c2cc(C(=O)NC[C@H]3CC[C@H](CNC(=O)OC(C)(C)C)CC3)c3ccccc3n2)s1 :: Condition met
CN(C[C@H]1CC[C@H](CNC(=O)OC(C)(C)C)CC1)S(=O)(=O)c1ccc2ccccc2c1 :: Condition not met
CN1CCN(c2ccc(-c3cc(C(=O)NC[C@H]4CC[C@H](CNC(=O)OC5CCOC5)CC4)c4ccccc4n3)cn2)CC1 (relative stereo) :: Condition not met
CC(C)(C)OC(=O)NC[C@H]1CC[C@H](CNC(=O)c2cc(-c3cncnc3)nc3ccccc23)CC1 :: Condition not met
CC(C)(C)OC(=O)NC[C@H]1CC[C@H](CNS(=O)(=O)c2ccc3ncsc3c2)CC1 :: Condition not met

Q. Is the reported IC50 for `COCCOC(=O)NC[C@H]1CC[C@H](CNC(=O)c2cc(-c3ccc(N4CCN(C)CC4)nc3)nc3ccccc23)CC1` strictly below 2 µM?
A. Condition not met

Q. Is the reported IC50 for `Cc1ccc(-c2cc(C(=O)NC[C@H]3CC[C@H](CNC(=O)OC(C)(C)C)CC3)c3ccccc3n2)cc1` strictly below 2 µM?
A. Condition met

Q. Is the reported IC50 for `CC(C)(C)OC(=O)NC[C@H]1CC[C@H](CNC(=O)c2cncc(-c3ccccc3)c2)CC1` strictly below 2 µM?
A. Condition not met

Q. Is the reported IC50 for `CC(C)(C)OC(=O)NC[C@H]1CC[C@H](CNC(=O)c2cc(-c3ccc(CNC(N)=O)cc3)nc3ccccc23)CC1` strictly below 2 µM?
A. Condition met

Q. Is the reported IC50 for `CN(C)CCOc1ccc(-c2cc(C(=O)NC[C@H]3CC[C@H](CNC(=O)OC(C)(C)C)CC3)c3ccccc3n2)cn1` strictly below 2 µM?
A. Condition met

Q. Is the reported IC50 for `CC(C)(C)OC(=O)NC[C@H]1CC[C@H](CNC(=O)c2cc(-c3cnccn3)nc3ccccc23)CC1` strictly below 2 µM?
A. Condition met

Q. Is the reported IC50 for `CN1CCN(c2ccc(-c3cc(C(=O)NC[C@H]4CC[C@H](CNC(=O)OC5CCOCC5)CC4)c4ccccc4n3)cn2)CC1` strictly below 2 µM?
A. Condition met

Q. Is the reported IC50 for `COc1cccc(-c2cc(C(=O)NC[C@H]3CC[C@H](CNC(=O)OC(C)(C)C)CC3)c3ccccc3n2)c1` strictly below 2 µM?
A. Condition met

Q. Is the reported IC50 for `CCOC(=O)NC[C@H]1CC[C@H](CNS(=O)(=O)c2ccc3ccccc3c2)CC1` strictly below 2 µM?
A. Condition not met

----------
Entries annotated with measured log10(IC50)
tgt: Human recombinant Acetyl-CoA Carboxylase 1 (ACC1) (Homo sapiens)
experiment-summary: Assay X: ACC1 inhibition, inorganic phosphate (malachite green)
Format: biochemical
applied-conditions: Assay X: 37° C., 1.5 h, 5 min pre-incubation
All values: log10 IC50 [µM].

CC(C)(C)OC(=O)NC[C@H]1CC[C@H](CNC(=O)c2cc(-c3ccc(NC(CO)CO)nc3)nc3ccccc23)CC1 :: 0.10
CN(C)CCC1CCN(c2cc(C(=O)NC[C@H]3CC[C@H](CNC(=O)OC4CCOCC4)CC3)c3ccccc3n2)CC1 :: 0.80
CC(=O)NCCC1CCN(c2cc(C(=O)NC[C@H]3CC[C@H](CNC(=O)OC(C)(C)C)CC3)c3ccccc3n2)CC1 :: 0.29
O=C(NC[C@H]1CC[C@H](CNC(=O)c2cc(-c3ccc(N4CC[C@@H](O)C4)nc3)nc3ccccc23)CC1)O[C@H]1CCOC1 :: 0.34
CC(C)(C)OC(=O)NC[C@H]1CC[C@H](CNC(=O)c2cc(N3CCC(CCN)CC3)nc3ccccc23)CC1 :: -0.29

Q. Can you look up log10(IC50) on Human recombinant Acetyl-CoA Carboxylase 1 (ACC1) (Homo sapiens) for CN(C)CC(O)CC1CCN(c2cc(C(=O)NC[C@H]3CC[C@H](CNC(=O)OC(C)(C)C)CC3)c3ccccc3n2)CC1 (stereo partly drawn) ?
A. 0.12

Q. Can you look up log10(IC50) on Human recombinant Acetyl-CoA Carboxylase 1 (ACC1) (Homo sapiens) for `O=C(NC[C@H]1CC[C@H](CNC(=O)c2cc(-c3ccc(NCCO)nc3)nc3ccccc23)CC1)OC1CCOCC1` ?
A. 0.98

Q. Can you look up log10(IC50) on Human recombinant Acetyl-CoA Carboxylase 1 (ACC1) (Homo sapiens) for `CC(C)(C)OC(=O)NC[C@H]1CC[C@H](CNC(=O)c2cc(N3CCC(CCN4CC(C(=O)O)C4)CC3)nc3ccccc23)CC1` ?
A. 0.26

Q. Can you look up log10(IC50) on Human recombinant Acetyl-CoA Carboxylase 1 (ACC1) (Homo sapiens) for `CC(C)(C)OC(=O)NC[C@H]1CC[C@H](CNC(=O)c2cc(-c3ccc(N4CC(O)C4)nc3)nc3ccccc23)CC1` ?
A. -0.17

Q. Can you look up log10(IC50) on Human recombinant Acetyl-CoA Carboxylase 1 (ACC1) (Homo sapiens) for `CN(C)CCn1cc(-c2cc(C(=O)NC[C@H]3CC[C@H](CNC(=O)OC(C)(C)C)CC3)c3ccccc3n2)cn1` ?
A. 0.12

Q. Can you look up log10(IC50) on Human recombinant Acetyl-CoA Carboxylase 1 (ACC1) (Homo sapiens) for `CC(C)(C)OC(=O)NC[C@H]1CC[C@H](CNC(=O)c2cc(-c3cnn(CCO)c3)nc3ccccc23)CC1` ?
A. 0.29

Q. Can you look up log10(IC50) on Human recombinant Acetyl-CoA Carboxylase 1 (ACC1) (Homo sapiens) for `CC(C)(C)OC(=O)NC[C@H]1CC[C@H](CNC(=O)c2cc(-c3ccc(N4CCC(C(N)=O)CC4)nc3)nc3ccccc23)CC1` ?
A. -0.64

Q. Can you look up log10(IC50) on Human recombinant Acetyl-CoA Carboxylase 1 (ACC1) (Homo sapiens) for `CC(C)(C)OC(=O)NC[C@H]1CC[C@H](CNC(=O)c2cc(-c3cccnc3)nc(-c3cccc(CN)c3)c2)CC1` ?
A. 0.03

Q. Can you look up log10(IC50) on Human recombinant Acetyl-CoA Carboxylase 1 (ACC1) (Homo sapiens) for `COCCNc1ccc(-c2cc(C(=O)NC[C@H]3CC[C@H](CNC(=O)OC(C)(C)C)CC3)c3ccccc3n2)cn1` ?
A. -0.09
